# tested_system: T1, recombinant human TIGIT (human, UniProt Q495A1 22-141, limits assumed)
# T1 construct: recombinant human TIGIT used in Carterra SPR; also called hTIGIT
# T1 sequence (looked up): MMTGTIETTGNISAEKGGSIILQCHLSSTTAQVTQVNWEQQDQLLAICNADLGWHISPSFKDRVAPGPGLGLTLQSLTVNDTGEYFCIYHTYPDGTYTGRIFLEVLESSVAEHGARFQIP
# protocol_summary: SPR Carterra, average
Give kon for every item shown.
Numbers only, in M⁻¹ s⁻¹.

Known kon results, listed for orientation:
TIGIT-SC163 (Fc fusion, VHH-Fc fusion in assay) VHH: EVQLVESGGGLVQPGGSLRLSCAASGFTFDRSWMGWFRQAPGKEREWVASVLRGGYTWYADSVKGRFTISADNSKNTAYLQMNSLKPEDTAVYYCATDKRGPHPDYWGQGTLVTVSS	38400
TIGIT-SC8 (Fc fusion, VHH-Fc fusion in assay) VHH: EVQLVESGGGLVQPGGSLRLSCAASGFAFSSYAMGWFRQAPGKEREFVARITWNGGSAYYADSVKGRFTISADNSKNTAYLQMNSLKPEDTAVYYCAAGATGWFDPWGQGTLVTVSS	156000
TIGIT-SC68 (Fc fusion, VHH-Fc fusion in assay) VHH: EVQLVESGGGLVQPGGSLRLSCAASGHTFRGYAMGWFRQAPGKEREAVAAISWSGDNTYYADSVKGRFTISADNSKNTAYLQMNSLKPEDTAVYYCGDYEGHWGQGTLVTVSS	1.87e+06

Report kon for each item below.
1. TIGIT-SC29 (Fc fusion, VHH-Fc fusion in assay) VHH: EVQLVESGGGLVQPGGSLRLSCAASGFTLENNMMGWFRQAPGKERELVAAIDWSGGSTIYADSVKGRFTISADNSKNTAYLQMNSLKPEDTAVYYCARGHDYGDYIAYWGQGTLVTVSS
2. TIGIT-SC63 (Fc fusion, VHH-Fc fusion in assay) VHH: EVQLVESGGGLVQPGGSLRLSCAASGRAIGSYGMGWFRQAPGKEREFVATISVSGVYTYYADSVKGRFTISADNSKNTAYLQMNSLKPEDTAVYYCARATPGGVVPWGQGTLVTVSS
3. TIGIT-SC77 (Fc fusion, VHH-Fc fusion in assay) VHH: EVQLVESGGGLVQPGGSLRLSCAASGGAFSTVAMGWFRQAPGKEREAVASIWRSGDSTYYADSVKGRFTISADNSKNTAYLQMNSLKPEDTAVYYCASSYSSSSGLGDIWGQGTLVTVSS
4. TIGIT-SC118 (Fc fusion, VHH-Fc fusion in assay) VHH: EVQLVESGGGLVQPGGSLRLSCAASGRTFSFMGWFRQAPGKEREWVASVLRGGYTWYADSVKGRFTISADNSKNTAYLQMNSLKPEDTAVYYCAKDGGWFDPWGQGTLVTVSS
5. TIGIT-SC213 (Fc fusion, VHH-Fc fusion in assay) VHH: EVQLVESGGGLVQPGGSLRLSCAASGTFQRINAMGWFRQAPGKEREFVAAIWRSGTLKAYADSVKGRFTISADNSKNTAYLQMNSLKPEDTAVYYCARWVGASGDYWIDYWGQGTLVTVSS
6. TIGIT-SC91 (Fc fusion, VHH-Fc fusion in assay) VHH: EVQLVESGGGLVQPGGSLRLSCAASGFTFSNYAMGWFRQAPGKEREFVAAINWNSRSTYYADSVKGRFTISADNSKNTAYLQMNSLKPEDTAVYYCARWRSIWSGYDDYYYMDVWGQGTLVTVSS

result:
[48700, 64300, "1.17e+06", 29700, 78400, "1.31e+06"]

Report kon for each item below.
1. TIGIT-SC192 (Fc fusion, VHH-Fc fusion in assay) VHH: EVQLVESGGGLVQPGGSLRLSCAASGFTFSVYWMGWFRQAPGKEREFVAAISRSGTLKEYADSVKGRFTISADNSKNTAYLQMNSLKPEDTAVYYCARGSGWPKIHFDYWGQGTLVTVSS
2. TIGIT-SC87 (Fc fusion, VHH-Fc fusion in assay) VHH: EVQLVESGGGLVQPGGSLRLSCAASGSIDTINTMGWFRQAPGKEREFVAAITPSSRTTYYVDSVKGRFTISADNSKNTAYLQMNSLKPEDTAVYYCARWGGVTFGGVYPLEYWGQGTLVTVSS
3. TIGIT-SC80 (Fc fusion, VHH-Fc fusion in assay) VHH: EVQLVESGGGLVQPGGSLRLSCAASGNIPPINAMGWFRQAPGKEREFVAAINYSGGSTYYADSVKGRFTISADNSKNTAYLQMNSLKPEDTAVYYCARWHYDILTGYYWLDSWGQGTLVTVSS
4. TIGIT-SC180 (Fc fusion, VHH-Fc fusion in assay) VHH: EVQLVESGGGLVQPGGSLRLSCAASGFTLNDYAMGWFRQAPGKERELVAWIARYDGSTLYADSVKGRFTISADNSKNTAYLQMNSLKPEDTAVYYCASEVASGETDYWGQGTLVTVSS
5. TIGIT-SC131 (Fc fusion, VHH-Fc fusion in assay) VHH: EVQLVESGGGLVQPGGSLRLSCAASGDTSEIYDMGWFRQAPGKEREFVAITWNSGRIGSNGFATYADSVKGRFTISADNSKNTAYLQMNSLKPEDTAVYYCARWAVGQAFDLWGQGTLVTVSS
6. TIGIT-SC20 (Fc fusion, VHH-Fc fusion in assay) VHH: EVQLVESGGGLVQPGGSLRLSCAASGNTFSGGFMGWFRQAPGKEREWVASVLRGGYTWYADSVKGRFTISADNSKNTAYLQMNSLKPEDTAVYYCATPRGYWGQGTLVTVSS

result:
[545000, 196000, 63200, 465000, 677000, 260000]
